Data provenance: patent US20250296938A1

Test system: KRas wild type
test.description: Ras GTP binding domain inhibition assay (Cy3-GTP/Cy5-GTP competition)
Set-up: species or system human
condition.summary: 20 μM; with SOS
Excerpt: The following method was developed as specific assay for the following proteins: KRas wild type, KRas Q61H mutant, KRas G12C mutant, KRas G12D mutant, HRas wild type, Rac-1, and Rho-A. […] The small GTPases proteins: KRas wild type. KRas Q61H mutant, KRas G12C mutant, KRas G12D mutants, HRas wild type, Rac-1, and Rho-A were expressed as His-tagged proteins. In addition, the Guanosine nucleotide Exchange Factor (GEF) Sos protein (residues 556-1049) was expressed as a His-tagged protein. […]
endpoint.name: KRas wild type + SOS: % inh.

Challenge: Specify measured KRas wild type + SOS: % inh. for Cc1cn(C)c(-c2nc(O)c3scc(-c4ccccn4)c3n2)n1 [drawing 807] .
Response given: B (26-50% inhibition)

Challenge: Specify measured KRas wild type + SOS: % inh. for COCCCN(C)c1nc(-c2nccn2C)nc2sc(-c3ccn(C)n3)c(-c3ccccc3)c12 [drawing 865] .
Response given: B (26-50% inhibition)

###

System: KRas wild type
test.description: Ras GTP binding domain inhibition assay (Cy3-GTP/Cy5-GTP competition)
Parameters: species or system human
condition.summary: 20 μM; without SOS
endpoint.name: KRas wild type: % inh.

The following compounds have reported results that may help.
Challenge: Specify measured KRas wild type: % inh. for COCCNc1nc(-c2cn(C)cn2)nc2sc(-c3cc(OC)ccc3Cl)c(-c3ccc(OC)cc3)c12 [drawing 795] .
Response given: B (26-50% inhibition)

Challenge: Specify measured KRas wild type: % inh. for COCC1CCN(c2nc(-c3nccn3C)nc3sc(-c4ccn(C)n4)c(-c4ccccc4)c23)C1 (centres unmarked) [drawing 858] .
Response given: 0 (0% inhibition)

Challenge: Specify measured KRas wild type: % inh. for CC(C)CNC(=O)c1nc(-c2ccccn2)nc(O)c1O [drawing 811] .
Response given: D (76-100% inhibition)

Challenge: Specify measured KRas wild type: % inh. for O=C(c1nc(-c2ccccn2)nc(O)c1O)N1CCOCC1 [drawing 800] .
Response given: C (51-75% inhibition)

Challenge: Specify measured KRas wild type: % inh. for COCCNc1nc(-c2nccn2C)nc2sc(-c3cc(OC)ccc3Cl)c(-c3ccc(OC)cc3)c12 [drawing 877] .
Response given: A (1-25% inhibition)

Now consider the entry below.
Challenge: Specify measured KRas wild type: % inh. for COC1CCN(c2nc(-c3nccn3C)nc3sc(-c4ccccc4CO)c(-c4ccccc4)c23)C1.Cl (centres unmarked) .
Response given: B (26-50% inhibition)

###

Test system: KRas Q61H mutant
test.description: Ras GTP binding domain inhibition assay (Cy3-GTP/Cy5-GTP competition)
Design: species or system human
condition.summary: 20 μM; without SOS
endpoint.name: KRas Q61H mutant: % inh.

The following compounds have reported results that may help.
Challenge: Specify measured KRas Q61H mutant: % inh. for COc1c(O)nc(-c2ccccn2)nc1Oc1ccc2ncccc2c1 [drawing 804] .
Response given: C (51-75% inhibition)

Challenge: Specify measured KRas Q61H mutant: % inh. for COC1CCN(c2nc(-c3nccn3C)nc3sc(-c4cnc(C5CC5)o4)c(-c4ccccc4)c23)C1.Cl (stereo not shown) .
Response given: B (26-50% inhibition)

Challenge: Specify measured KRas Q61H mutant: % inh. for COc1nc(-c2ccccn2)nc(Nc2cnn(C)c2)c1OC [drawing 794] .
Response given: 0 (0% inhibition)

Challenge: Specify measured KRas Q61H mutant: % inh. for Cn1ccc(-c2sc3nc(-c4nccn4C)nc(NCC4CCOC4)c3c2-c2ccccc2)n1 (stereo not shown) [drawing 861] .
Response given: B (26-50% inhibition)

Others:
Challenge: Specify measured KRas Q61H mutant: % inh. for Oc1nc(-c2cn(-c3ccccc3)cn2)nc2c(-c3ccccn3)csc12 [drawing 847] .
Response given: B (26-50% inhibition)

Challenge: Specify measured KRas Q61H mutant: % inh. for COC1CCN(c2nc(-c3nccn3C)nn3cc(-c4ccccc4)c(-c4ccccc4)c23)C1 (stereo not shown) [drawing 796] .
Response given: B (26-50% inhibition)

Challenge: Specify measured KRas Q61H mutant: % inh. for COCC1CCN(c2nc(-c3nccn3C)nc3sc(-c4ccn(C)n4)c(-c4ccccc4)c23)C1 (stereo not shown) [drawing 858] .
Response given: C (51-75% inhibition)

Challenge: Specify measured KRas Q61H mutant: % inh. for COCCNc1nc(-c2nccn2C)nc2sc(-c3cc(OC)ccc3Cl)c(-c3ccccc3)c12 [drawing 871] .
Response given: C (51-75% inhibition)
